# assay-summary: serotonin-gated TRPC4 signal block – cell-based, second counter screen, HEK293 TRPC4/5HT1a, Fluo-4, counter-screen for TRPC4 inhibitor project, confirmation (AID 434978);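 for outcome: serotonin given first at submaximal then at maximal dose after compound preincubation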
# conditions: Fluo-4 calcium flux, at 10 µM, serotonin added to trigger calcium flux
Activity calls are given as the source filed them.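 Rule for the calls: active = primary screen active whose calcium signal fell more than 3 SD beyond the full-serotonin control mean in both duplicate plates; inactive = the rest.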
Tick one outcome: active, inactive

Here's what some known entries look like.
compound: Cc1ccc(NC(=S)NC2CC3CCC(C2)N3Cc2ccco2)c(C)c1 (centres undefined)
class-assignment: inactive

compound: N=c1c(C(=O)NCc2ccc(F)cc2)cc2c(=O)n3ccccc3nc2n1Cc1ccco1
class-assignment: inactive

compound: C=CCSc1nnc2n(-c3ccccc3OC)c(=O)c3c4c(sc3n12)CCC4
class-assignment: active

Then this compound:
## Input Dear colleague, could you share the recorded outcome for CCCOc1ccc(-c2nc(SCc3ccccc3)[nH]c(=O)c2C#N)cc1OC when you have a moment?
## Output inactive
